Biological target: Tubulin (Sus scrofa) (UniProt P02554+P02550)
Sequence (P02550 whole entry, looked up): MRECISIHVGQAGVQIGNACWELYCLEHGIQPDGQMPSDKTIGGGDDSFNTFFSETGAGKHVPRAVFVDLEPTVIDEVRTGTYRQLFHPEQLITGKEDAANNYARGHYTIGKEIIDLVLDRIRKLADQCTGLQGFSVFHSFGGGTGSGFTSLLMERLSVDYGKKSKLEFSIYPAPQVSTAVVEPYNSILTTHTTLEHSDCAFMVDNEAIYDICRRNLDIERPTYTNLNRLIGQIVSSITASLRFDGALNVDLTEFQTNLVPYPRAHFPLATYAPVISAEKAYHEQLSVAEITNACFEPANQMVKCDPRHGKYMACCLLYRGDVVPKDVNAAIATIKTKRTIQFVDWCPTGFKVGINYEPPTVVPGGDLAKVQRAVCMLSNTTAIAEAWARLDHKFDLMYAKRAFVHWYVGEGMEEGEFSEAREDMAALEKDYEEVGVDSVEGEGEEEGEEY
Sequence (P02554 whole entry, looked up): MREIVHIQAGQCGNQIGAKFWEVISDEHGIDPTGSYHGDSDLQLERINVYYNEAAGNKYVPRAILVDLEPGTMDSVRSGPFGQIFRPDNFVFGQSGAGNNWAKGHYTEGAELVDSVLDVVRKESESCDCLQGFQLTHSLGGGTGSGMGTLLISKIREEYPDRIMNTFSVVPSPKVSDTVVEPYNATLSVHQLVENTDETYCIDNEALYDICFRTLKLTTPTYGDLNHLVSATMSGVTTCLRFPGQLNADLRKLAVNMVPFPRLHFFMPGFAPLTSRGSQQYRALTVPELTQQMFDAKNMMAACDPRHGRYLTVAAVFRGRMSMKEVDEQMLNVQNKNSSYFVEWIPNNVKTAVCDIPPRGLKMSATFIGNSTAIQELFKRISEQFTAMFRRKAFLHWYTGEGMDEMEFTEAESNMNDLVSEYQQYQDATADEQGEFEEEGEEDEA
Experiment: Induction of porcine brain tubulin polymerization at 20 uM incubated for 1 hr by turbidimetric assay
Active and inactive are the calls of the source. The calls are words filed in the database; no cut-off is given here.
Entry note: the call must match one of T for active, F for inactive

{"columns": ["COMPOUND", "LABEL"],
 "data": [
  ["C=C(C)C(O)Cc1c(O)ccc(C(=O)/C=C/c2ccccc2)c1O (centres undefined)", "T"],
  ["C=C1C(=O)O[C@H]2C/C(COC(=O)C(C)C)=C/CC[C@]3(C)O[C@H]3[C@@H](O)[C@H]12", "F"],
  ["C=C(C)C(=O)OC/C1=C\\CC[C@]2(C)O[C@H]2[C@@H](O)[C@@H]2C(=C)C(=O)O[C@H]2C1", "F"]
]}

Per the assay record, what outcome was assigned to C=C(C)C(=O)O[C@H]1C/C(C=O)=C\CC/C(C)=C/[C@H]2OC(=O)C(=C)[C@H]12 ?
F

###

Test system: DU-145
Experiment: Disruption of mitotic spindle in human DU145 cells assessed as elongated and curved morphology at 5 times antiproliferative IC50 after 16 to 18 hrs by DAPI staining based immunofluorescence microscopy
Assay type: functional, cell-based
Calls of active or inactive are those of the source. The rule behind the calls is not given here.
Pick from class 1 = active, class 0 = inactive when you respond.

{"columns": ["STRUCTURE_SMILES", "LABEL"],
 "data": [
  ["C=C1C(=O)O[C@H]2C/C(COC(=O)C(C)C)=C/CC[C@]3(C)O[C@H]3[C@@H](O)[C@H]12", "class 1"],
  ["C=C(C)C(=O)O[C@H]1C/C(C=O)=C\\CC/C(C)=C/[C@H]2OC(=O)C(=C)[C@H]12", "class 1"],
  ["CC(C)[C@@H]1CC[C@@]2(C)CCC[C@@](C)(O)[C@@H]2[C@@H]1OC(=O)/C=C/c1ccc(O)cc1", "class 0"]
]}

Now consider the entry below.
Status in this test for C=C(C)C(=O)OC/C1=C\CC[C@]2(C)O[C@H]2[C@@H](O)[C@@H]2C(=C)C(=O)O[C@H]2C1 ?
class 1

Origin of the recorded values: ChEMBL document CHEMBL3813658
